Listed below: GI50 values for each entry.
- Test system: SF-295
- PROCEDURE TEXT: NCI tumour cell line growth inhibition, 48 h
Activity calls are given as the source filed them. No stated cut-off is given here; in the data, active = GI50 up to about 1.1 µM and inactive = higher.

Worked examples follow.
1. COc1ccc(C2NC(c3ccc(OC)cc3)C(C)C(=O)C2C)cc1 (configuration not stated): > 100 µM (inactive)
2. Cc1ccccc1C1=[N+]([O-])c2ccccc2C1=O: 23.7 µM (inactive)
3. C[C@H](CN1CC(=O)NC(=O)C1)N1CC(=O)NC(=O)C1: > 100 µM (inactive)
4. CN1CCc2c1nc(-c1cccnc1)c1c2N(C)CC1: > 100 µM (inactive)
5. COC(=O)[C@H]1COC(=O)N1: > 100 µM (inactive)

GI50 for ICC1CCCO1 (configuration not stated) ? > 100 µM (inactive)

GI50 for O=C1c2ccccc2NC2C(O)c3ccccc3N12 (configuration not stated) ? 28.8 µM (inactive)

GI50 for Cc1cc(N(CCC#N)CCC#N)ccc1/N=N/c1cccc(Cl)c1 ? > 100 µM (inactive)

GI50 for COP(=O)(OC)[C@@](O)(c1ccccc1)[C@@H](O)[C@@H](O)c1ccccc1 ? > 100 µM (inactive)

GI50 for O=C(CC(=O)c1ccccc1)C(=O)NC12CC3CC(CC(C3)C1)C2 ? > 100 µM (inactive)

GI50 for CC1=C(C(=O)NNS(=O)(=O)c2ccc(C)cc2)CC(C(=O)NNS(=O)(=O)c2ccc(C)cc2)=C(C)N1 ? > 100 µM (inactive)

GI50 for CSc1nc(Cl)c(Br)c(Nc2cnc(O)nc2O)n1 ? 18.9 µM (inactive)

* * *

- System: A498
- PROCEDURE TEXT: NCI tumour cell line growth inhibition, 48 h
Activity calls are given as the source filed them. No stated cut-off is given here; in the data, active = GI50 up to about 1.1 µM and inactive = higher.
Answer with one of the outcomes 1 (yes) for active, 0 (no) for inactive

Study these solved cases before continuing.
1. Cc1ccccc1C1=[N+]([O-])c2ccccc2C1=O: 0 (no)
2. CN(C)CCN(C)C(=O)C1CCCN1C(=O)OCc1ccccc1 (stereo unspecified): 0 (no)
3. COc1cc(O)c2c(c1)OCC(Cc1ccc(O)cc1)C2=O (stereo unspecified): 0 (no)
4. C=CCN1C(=O)/C(=C/c2cccs2)N=C1SC1OC(COC(=O)c2ccccc2)C(OC(=O)c2ccccc2)C1OC(=O)c1ccccc1 (stereo unspecified): 0 (no)

Here is the next item to consider.
Entry CC(CO)CCNc1ncnc2c1ncn2CCC(=O)OC(C)(C)C (stereo unspecified) : call = ? 0 (no)

* * *

Listed below: GI50 values for each entry.
- Tested on: HOP-62
- PROCEDURE TEXT: NCI tumour cell line growth inhibition, 48 h
Activity calls are given as the source filed them. Cut-off read from the data, not from the text of the source: active = GI50 up to about 1.1 µM and inactive = higher.

Worked examples follow.
1) CCCCC1(OC(=O)CCC(=O)O)CCC2(CCC(C)C(C/C=C(C)/C=C/C(O)C(C)/C=C/C(=O)O)O2)OC1CC/C(C)=C/C(=O)O (stereo not given): 2.09 µM (inactive)
2) COc1cc2c[n+](C)c3c4cc5c(cc4ccc3c2cc1OC)OCO5 [NITIDINE CHLORIDE]: 2.18 µM (inactive)
3) CC1CC(=O)N(N(C)C)C2(C#N)C(=O)N=C(N)C12C#N (stereo not given): > 100 µM (inactive)

GI50 for CC(C)C1CCC(=O)CC1CCCCC1CC(=O)CC1O[Si](C)(C)C(C)(C)C (stereo not given) ? 7.06 µM (inactive)

GI50 for Cn1cnc(N2CCCC2)c(C#N)c1=O ? > 100 µM (inactive)

* * *

- Test system: SK-MEL-28
- PROCEDURE TEXT: NCI tumour cell line growth inhibition, 48 h
Activity calls are given as the source filed them. Rule as the data show it: active = GI50 up to about 1.1 µM and inactive = higher.
Listed below: GI50 values for each entry.

GI50 for CC(=O)NC1C(OCc2ccccc2)OC(CO)C(O)C1OC(C)C(=O)NC(C)C(=O)NC(CCC(=O)NCCCNc1c2ccccc2nc2cccc([N+](=O)[O-])c12)C(N)=O (stereo unspecified) ? 2.58 µM (inactive)

GI50 for CCCC(C(=O)OC)C1N/C(=N/C#N)N(Cc2ccccc2)C1=O (stereo unspecified) ? > 100 µM (inactive)

GI50 for Cc1nc(C)c(Cc2ccccc2)o1 ? > 100 µM (inactive)

GI50 for O=C(NCCOCCO)c1ccc(O)cc1 ? > 100 µM (inactive)

GI50 for CC(C)(C)OC(=O)N(CCCCNC(=O)OCc1ccccc1)CCCNC(=O)OCc1ccccc1 ? > 100 µM (inactive)

GI50 for Cc1nc(N)c(N2CCN(Cc3ccccc3)CC2)c(O)n1 ? > 100 µM (inactive)

* * *

Listed below: GI50 values for each entry.
- Test system: SF-295
- PROCEDURE TEXT: NCI tumour cell line growth inhibition, 48 h
The source made the active and inactive calls. Rule as the data show it: active = GI50 up to about 1.1 µM and inactive = higher.

Worked examples follow.
1) COc1nc(C#CC2(O)CCCCC2)nc(OC)n1: 18 µM (inactive)
2) COC1=CC(=O)C(O)=C(C[C@@]2(C)[C@@H]3CCC[C@H](COC(=O)CCCCCNC(=O)OC(C)(C)C)[C@@]3(C)CC[C@@H]2C)C1=O: 5.28 µM (inactive)
3) Cc1cc(C)nc(NS(=O)(=O)c2ccc(Nc3c4ccc(Cl)cc4nc4c(C(=O)Nc5ccc(S(N)(=O)=O)cc5)cccc34)cc2)n1: 18.2 µM (inactive)
4) O=c1[nH]c(=O)n(COCCOCc2ccccc2)cc1Nc1ccccc1: > 100 µM (inactive)
5) CC[C@H](C)C1=C(O)[N@+]2([O-])Oc3ccc(-c4c(O)c(O)c(-c5ccc(OC(C)=O)cc5)c(OC(C)=O)c4OC(C)=O)cc3O[C@]2([C@@H](C)CC)C(=O)N1O: 21.6 µM (inactive)

GI50 for ClCc1c(-c2ccccc2)nn(-c2ccccc2)c1CCl ? 17.2 µM (inactive)

GI50 for COc1ccc(/C=N/c2nc3cc4sc(/N=C/c5ccc(OC)cc5)nc4cc3s2)cc1 ? 43.6 µM (inactive)

GI50 for COc1cc2c(cc1O)[C@@H]1Cc3c(cc(OC)c(OC)c3Oc3cc4c(cc3OC)CCN(C)[C@@H]4Cc3ccc(O)cc3)[C@H](C2)N1C ? 46 µM (inactive)

* * *

- System: OVCAR-5
- PROCEDURE TEXT: NCI tumour cell line growth inhibition, 48 h
Active and inactive are the calls of the source. No stated cut-off is given here; in the data, active = GI50 up to about 1.1 µM and inactive = higher.
MEASURED ENDPOINT: GI50

1. Cn1cnc([N+](=O)[O-])c1Sc1ccccn1: > 100 µM (inactive)

Now turn to the next compound.
Please provide the recorded GI50 for CN(C)C1(c2cc3ccccc3s2)CCCCC1 , tested on OVCAR-5. 22.5 µM (inactive)

* * *

- Test system: PC-3
- PROCEDURE TEXT: NCI tumour cell line growth inhibition, 48 h
Calls of active or inactive are those of the source. Cut-off read from the data, not from the text of the source: active = GI50 up to about 1.1 µM and inactive = higher.
MEASURED ENDPOINT: GI50

1. CN1C(=O)N(C)C(O)C(Cl)(Br)C1=O (stereo not given): > 100 µM (inactive)
2. CCC1C(=O)OCc2c1cc1n(c2=O)Cc2cc3ccccc3nc2-1 (stereo not given): 15.4 µM (inactive)
3. Oc1ccc2ccccc2c1/C=C/c1ccc2c(Br)cc(Br)c(O)c2n1: 4.57 µM (inactive)
4. COC(=O)NCCc1n[nH]c2c1C(=O)C=C(N1CCOCC1)C2=O: > 100 µM (inactive)
5. CN1C(=O)c2c(c3c4ccccc4n(C)c3c3c2c2ccccc2n3C)C1=O: > 100 µM (inactive)
6. CCOC(=O)C1c2[nH]c3ccccc3c2CCN1C(=O)c1ccco1 (stereo not given): > 10 µM (inactive)
7. CCOC(=O)/C=C(/C(=O)OCC)n1cc(C)c(=O)n(Cc2cnnn2COCCOC(C)=O)c1=O: 17.2 µM (inactive)
8. N#CCCN(CCC#N)c1ccc(/C=C2\N=C(c3ccccc3)N(NC(N)=S)C2=O)cc1: > 100 µM (inactive)
9. CC(C)(C)c1cc(C(C)(C)C)c2sc(=O)oc2c1O: 14.7 µM (inactive)

Now turn to the next compound.
GI50 for COC1=CC(=O)C(O)=C(C[C@@]2(C)[C@@H]3CCC[C@H](COC(=O)CCCCCNC(=O)OC(C)(C)C)[C@@]3(C)CC[C@@H]2C)C1=O ? > 10 µM (inactive)

* * *

- Tested on: MDA-N
- PROCEDURE TEXT: NCI tumour cell line growth inhibition, 48 h
Calls of active or inactive are those of the source. No stated cut-off is given here; in the data, active = GI50 up to about 1.1 µM and inactive = higher.
Listed below: GI50 values for each entry.

Worked examples follow.
1) O=P1(Oc2ccc(Cl)cc2)OCCS1 (stereo not drawn): > 100 µM (inactive)
2) CC(=O)NC1C(OCc2ccccc2)OC(CO)C(O)C1OCC(=O)N[C@@H](C)C(=O)N[C@H](CCC(=O)NCCNc1ccc([N+](=O)[O-])c2[nH]c3ccccc3c(=O)c12)C(N)=O (stereo partly drawn): 27.9 µM (inactive)
3) O=C1O[B-](c2ccccc2)(c2ccccc2)[NH+]2CCCC12 (stereo not drawn): 85.1 µM (inactive)
4) CSc1nc(Cl)c(Br)c(Nc2cnc(O)nc2O)n1: 23 µM (inactive)
5) COP(=O)(OC)[C@@](O)(c1ccccc1)[C@@H](O)[C@@H](O)c1ccccc1: 85.3 µM (inactive)
6) Cc1ccc2nc3c(C)c(Cl)c(=O)cc-3sc2c1: 16.9 µM (inactive)
7) O=c1c2ncn(CCCl)c2n(-c2ccccc2)c(=S)n1-c1ccccc1: > 100 µM (inactive)

Now turn to the next molecule.
GI50 for Cc1c(N)nc(C(CC(N)=O)NCC(N)C(N)=O)nc1C(=O)NC(C(=O)NC(C)C(O)C(C)C(=O)NC(C(=O)NCCc1nc(-c2nc(C(=O)NCCCNC(C)c3ccccc3)cs2)cs1)C(C)O)C(OC1OC(CO)C(O)C(O)C1OC1OC(CO)C(O)C(OC(N)=O)C1O)c1c[nH]cn1 (stereo not drawn) ? > 50 µM (inactive)
